Molecular target: cysteines in MDA-MB-231 and Ramos cells (Homo sapiens)
Sequence (P11216 1-843): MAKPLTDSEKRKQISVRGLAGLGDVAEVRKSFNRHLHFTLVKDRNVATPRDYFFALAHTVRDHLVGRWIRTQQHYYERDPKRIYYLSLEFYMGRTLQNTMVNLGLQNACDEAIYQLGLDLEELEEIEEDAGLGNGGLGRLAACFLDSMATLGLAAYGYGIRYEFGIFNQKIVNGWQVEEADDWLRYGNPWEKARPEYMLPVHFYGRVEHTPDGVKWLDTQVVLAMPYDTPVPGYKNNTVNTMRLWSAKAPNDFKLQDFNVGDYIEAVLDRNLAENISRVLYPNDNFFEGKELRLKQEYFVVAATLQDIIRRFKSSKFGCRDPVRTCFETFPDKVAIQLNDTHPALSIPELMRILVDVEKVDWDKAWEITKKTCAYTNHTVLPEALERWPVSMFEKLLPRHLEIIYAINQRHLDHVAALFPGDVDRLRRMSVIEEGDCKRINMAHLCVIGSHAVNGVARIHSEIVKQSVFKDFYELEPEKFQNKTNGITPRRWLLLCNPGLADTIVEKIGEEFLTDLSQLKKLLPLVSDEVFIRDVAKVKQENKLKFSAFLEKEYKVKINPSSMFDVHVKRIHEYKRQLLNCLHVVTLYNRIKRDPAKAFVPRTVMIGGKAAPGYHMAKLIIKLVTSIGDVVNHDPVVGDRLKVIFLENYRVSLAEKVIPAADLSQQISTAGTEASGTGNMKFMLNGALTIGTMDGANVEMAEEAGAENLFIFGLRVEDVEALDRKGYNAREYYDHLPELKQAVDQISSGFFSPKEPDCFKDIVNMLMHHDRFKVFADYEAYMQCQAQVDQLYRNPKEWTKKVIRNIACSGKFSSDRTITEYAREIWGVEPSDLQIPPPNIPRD
Experiment: Competitive isoTOP-ABPP in situ (fragment-treated cells)
Format: cell-based
Settings: 200 μM, insitu, 231
measure name: isoTOP-ABPP ratio P11216_C326
Just the number, please, no unit attached.

| molecule | target or system | isoTOP-ABPP ratio P11216_C326 |
| --- | --- | --- |
| O=C(CCl)NCCc1c[nH]c2ccccc12 [compound 13] | cysteines in MDA-MB-231 and Ramos cells (Homo sapiens) | 1.3 |
| O=C(CCl)N1CCN(S(=O)(=O)c2ccccc2F)CC1 [compound 10] | cysteines in MDA-MB-231 and Ramos cells (Homo sapiens) | 8.6 |
| CC1CCc2ccccc2N1C(=O)CCl (centres unmarked) [compound 45] | cysteines in MDA-MB-231 and Ramos cells (Homo sapiens) | 5.3 |
| Cc1ccc(C=C(C#N)C(=O)NCCN2CCOCC2)cc1 [compound 41] | cysteines in MDA-MB-231 and Ramos cells (Homo sapiens) | 0.7 |

Now for the molecule whose isoTOP-ABPP ratio P11216_C326 we want.
Hello, please tell me recorded isoTOP-ABPP ratio P11216_C326 for this one: O=C(CCl)NC12CC3CC(CC(C3)C1)C2 [compound 21]
0.9
